# SYSTEM_NAME: HLA-A*1101 (Homo sapiens, UniProt P04439, A114D/D185E/E176A/F33Y/L180Q/S129P/T187R)
# MEASUREMENT_DESCRIPTION: purified HLA class I binding assay, A*1101
# SETTINGS: Table IX, HIV A03 super motif peptides; binding value, unit not given
READOUT_TYPE: A*1101 (binding information)

See these solved cases before continuing.
>>> meas_value("ASCDKCQLK")
0.0140
>>> meas_value("WMGYELIIPDK")
0.0004
>>> meas_value("FTTPDKKIIQK")
0.0150
>>> meas_value("KLVDFRELNK")
0.0900
>>> meas_value("YLAWVPAIIK")
0.0570
>>> meas_value("DIQIKELQK")
0.0006
>>> meas_value("GIPHPAGLK")
0.0650

Record request: A*1101 (binding information) value, item VASCDKCQLK
0.0004
